Target: ATR/ATRIP complex (Homo sapiens (Human), UniProt Q13535)
Sequence (Q13535 whole entry): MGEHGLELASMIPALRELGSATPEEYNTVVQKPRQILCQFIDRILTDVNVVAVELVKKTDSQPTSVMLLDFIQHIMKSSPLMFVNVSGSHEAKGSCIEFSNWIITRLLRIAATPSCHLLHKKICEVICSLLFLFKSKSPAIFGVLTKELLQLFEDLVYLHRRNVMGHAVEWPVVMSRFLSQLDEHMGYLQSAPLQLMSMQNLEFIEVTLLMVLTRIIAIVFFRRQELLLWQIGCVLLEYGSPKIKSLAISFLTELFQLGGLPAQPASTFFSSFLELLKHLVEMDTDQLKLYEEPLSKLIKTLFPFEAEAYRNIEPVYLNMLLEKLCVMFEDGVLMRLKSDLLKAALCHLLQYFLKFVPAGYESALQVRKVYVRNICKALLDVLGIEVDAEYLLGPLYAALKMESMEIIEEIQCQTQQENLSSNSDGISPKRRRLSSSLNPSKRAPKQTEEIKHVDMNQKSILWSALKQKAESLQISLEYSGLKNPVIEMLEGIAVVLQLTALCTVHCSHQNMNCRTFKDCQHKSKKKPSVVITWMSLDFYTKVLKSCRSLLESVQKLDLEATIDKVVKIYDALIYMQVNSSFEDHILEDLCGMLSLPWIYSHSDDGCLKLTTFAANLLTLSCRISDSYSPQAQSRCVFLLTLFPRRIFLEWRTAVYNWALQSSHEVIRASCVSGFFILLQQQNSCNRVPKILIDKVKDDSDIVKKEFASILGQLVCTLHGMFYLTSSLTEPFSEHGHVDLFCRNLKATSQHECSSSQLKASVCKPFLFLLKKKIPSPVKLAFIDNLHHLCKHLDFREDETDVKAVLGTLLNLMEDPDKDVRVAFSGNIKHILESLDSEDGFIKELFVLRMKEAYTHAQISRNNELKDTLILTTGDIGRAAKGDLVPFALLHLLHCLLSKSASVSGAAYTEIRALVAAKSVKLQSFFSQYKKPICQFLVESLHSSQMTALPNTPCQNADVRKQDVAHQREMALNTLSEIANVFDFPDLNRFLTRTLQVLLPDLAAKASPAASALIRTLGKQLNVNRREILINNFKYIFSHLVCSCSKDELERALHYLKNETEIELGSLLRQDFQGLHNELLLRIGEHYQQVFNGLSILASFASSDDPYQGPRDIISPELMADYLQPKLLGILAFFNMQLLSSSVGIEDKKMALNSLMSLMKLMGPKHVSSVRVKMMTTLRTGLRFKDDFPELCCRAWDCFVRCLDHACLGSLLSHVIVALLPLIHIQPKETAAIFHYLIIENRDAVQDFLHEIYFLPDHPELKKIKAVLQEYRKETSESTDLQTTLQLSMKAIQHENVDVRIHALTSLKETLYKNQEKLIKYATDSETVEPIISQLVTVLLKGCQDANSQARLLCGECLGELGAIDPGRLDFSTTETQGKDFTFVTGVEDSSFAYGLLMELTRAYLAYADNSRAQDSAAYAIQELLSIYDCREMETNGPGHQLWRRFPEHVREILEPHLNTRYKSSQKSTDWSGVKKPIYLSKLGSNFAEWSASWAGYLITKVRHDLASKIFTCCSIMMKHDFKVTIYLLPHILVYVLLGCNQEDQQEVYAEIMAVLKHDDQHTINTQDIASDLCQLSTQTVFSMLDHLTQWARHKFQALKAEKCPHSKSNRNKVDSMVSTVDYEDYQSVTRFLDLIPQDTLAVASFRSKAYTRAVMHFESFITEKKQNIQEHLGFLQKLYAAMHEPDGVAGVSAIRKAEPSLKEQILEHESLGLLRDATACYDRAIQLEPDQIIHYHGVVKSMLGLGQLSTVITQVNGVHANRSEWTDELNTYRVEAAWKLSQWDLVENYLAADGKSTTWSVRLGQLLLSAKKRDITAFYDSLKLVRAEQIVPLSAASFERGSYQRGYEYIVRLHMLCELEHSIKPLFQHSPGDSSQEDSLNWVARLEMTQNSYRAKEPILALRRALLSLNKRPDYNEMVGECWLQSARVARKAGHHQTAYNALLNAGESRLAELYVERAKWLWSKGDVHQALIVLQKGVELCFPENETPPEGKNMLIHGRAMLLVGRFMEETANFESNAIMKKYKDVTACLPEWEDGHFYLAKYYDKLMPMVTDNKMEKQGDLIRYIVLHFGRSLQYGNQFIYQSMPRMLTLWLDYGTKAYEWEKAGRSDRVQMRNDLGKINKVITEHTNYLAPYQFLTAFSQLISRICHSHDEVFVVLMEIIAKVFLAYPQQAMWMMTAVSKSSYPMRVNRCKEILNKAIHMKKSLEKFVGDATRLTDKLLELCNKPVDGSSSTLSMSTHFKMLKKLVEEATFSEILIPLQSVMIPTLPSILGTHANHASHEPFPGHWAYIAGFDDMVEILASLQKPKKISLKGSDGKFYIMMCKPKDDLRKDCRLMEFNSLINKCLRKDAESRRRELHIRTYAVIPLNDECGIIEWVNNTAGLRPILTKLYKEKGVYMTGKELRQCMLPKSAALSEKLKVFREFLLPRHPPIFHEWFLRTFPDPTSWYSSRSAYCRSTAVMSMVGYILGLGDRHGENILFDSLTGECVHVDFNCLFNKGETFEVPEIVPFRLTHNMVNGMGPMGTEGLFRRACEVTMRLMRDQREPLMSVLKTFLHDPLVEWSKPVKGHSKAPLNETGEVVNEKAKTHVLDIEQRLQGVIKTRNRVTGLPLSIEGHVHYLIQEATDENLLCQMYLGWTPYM
Sequence (Q8WXE1 whole entry partner): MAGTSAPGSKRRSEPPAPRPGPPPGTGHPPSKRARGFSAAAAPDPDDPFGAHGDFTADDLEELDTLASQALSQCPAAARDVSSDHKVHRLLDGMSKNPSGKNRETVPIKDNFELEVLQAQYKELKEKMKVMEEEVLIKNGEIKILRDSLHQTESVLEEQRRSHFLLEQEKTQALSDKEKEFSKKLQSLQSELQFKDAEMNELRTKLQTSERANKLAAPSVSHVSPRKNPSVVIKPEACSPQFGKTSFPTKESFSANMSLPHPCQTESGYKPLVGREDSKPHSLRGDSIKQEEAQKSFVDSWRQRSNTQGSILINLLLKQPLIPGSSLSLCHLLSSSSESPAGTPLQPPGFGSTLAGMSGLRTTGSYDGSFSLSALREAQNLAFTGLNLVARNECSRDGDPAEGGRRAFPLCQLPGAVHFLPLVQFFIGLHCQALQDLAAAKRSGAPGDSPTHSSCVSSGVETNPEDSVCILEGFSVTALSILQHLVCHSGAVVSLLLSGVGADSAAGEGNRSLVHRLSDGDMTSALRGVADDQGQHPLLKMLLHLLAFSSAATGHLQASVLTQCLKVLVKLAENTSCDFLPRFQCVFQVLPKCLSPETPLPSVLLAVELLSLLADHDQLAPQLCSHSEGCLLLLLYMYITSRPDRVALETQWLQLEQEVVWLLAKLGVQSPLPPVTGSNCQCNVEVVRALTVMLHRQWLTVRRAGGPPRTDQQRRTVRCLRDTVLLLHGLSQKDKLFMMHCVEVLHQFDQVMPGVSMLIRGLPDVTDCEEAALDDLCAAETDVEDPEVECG
Assay: ATR/ATRIP enzymatic assay (Caliper-based)
Type: biochemical
Details: FAM-labeled RAD17 peptide, ATP; read-out: ATR/ATRIP Enzyme IC50
pIC50: −log10 of the molar value.
valueType: pIC50

                                   compound  reportedmeasurement
0  Cc1cc(N2Cc3c(ncnc3C3CCN(S(C)(=O)=O)CC3)C[C@H]2C)c2cc[nH]c2n1 [Example 56]                 6.11
1  CS(=O)(=O)N1CCC(c2ncnc3c2CN(c2ccnc4[nH]ccc24)[C@@H](CF)C3)CC1 [Example 52a]                 4.52
2  CNC(=O)[C@@H]1CCCN(c2ncnc3c2CN(c2cc(Cl)nc4[nH]ccc24)[C@H](C)C3)C1 [Example 44]                 5.98
3  C[C@@H]1Cc2ncnc(N3CC(C(C)(C)O)C3)c2CN1c1cc(Cl)nc2[nH]ccc12 [Example 33]                 6.74
4  C[C@@H]1Cc2ncnc(N3CCC(S(C)(=O)=O)CC3)c2CN1c1ccnc2[nH]ccc12 [Example 8, bis(trifluoroacetate)]                 6.01
5  C[C@@H]1Cc2ncnc(C3CCN(S(C)(=O)=O)CC3)c2CN1c1cnc2cn[nH]c2c1 [Example 89]                 6.86
6  C[C@@H]1Cc2ncnc(C3CCN(C(=O)C(C)(C)O)CC3)c2CN1c1ccnc2[nH]ccc12 [Example 49]                 5.44

###

System: ATR-driven phosphorylation of Chk1 kinase at Serine 345 in HT-29 colorectal adenocarcinoma cells
Experiment: pCHK1 cellular assay (CHK1 p-Ser345 AlphaScreen SureFire)
Assay type: cell-based
Conditions: Homo sapiens, HT-29, HT-29 cells, 4-nitroquinoline N-oxide 12 uM; read-out: Cell IC50 (pCHK1 IC50 values)
valueType: IC50 (nM)

In [3]: df
Out[3]:
                                    compound  reportedmeasurement
 0  C[C@@H]1Cc2ncnc(N3CC(C#N)C3)c2CN1c1ccnc2[nH]ccc12                   38
 1  C[C@@H]1Cc2ncnc(C3CCN(S(C)(=O)=O)C3)c2CN1c1ccnc2[nH]ccc12 (stereo partly drawn)                  362
 2  C[C@@H]1Cc2ncnc(N3C[C@H]4CC[C@@H](C3)C4NC(=O)CC(F)(F)F)c2CN1c1cc(Cl)nc2[nH]ccc12 (stereo partly drawn)                   88
 3  C[C@@H]1Cc2ncnc(N3CCS(=O)(=O)CC3)c2CN1c1cc(Cl)nc2[nH]ccc12                  554
 4  CS(=O)(=O)c1cccc(-c2ncnc3c2CN(c2ccnc4[nH]ccc24)CC3)c1                 1610
 5  C[C@@H]1Cc2ncnc(C3CCCN(S(C)(=O)=O)C3)c2CN1c1ccnc2[nH]ccc12 (single isomer, unassigned) [Example 50a]                   55
 6  C[C@@H]1Cc2ncnc(N3C[C@H]4CC[C@@H](C3)[C@H]4NS(C)(=O)=O)c2CN1c1cc(Cl)nc2[nH]ccc12                   27
 7  C[C@@H]1Cc2ncnc(C3CN(S(C)(=O)=O)C3)c2CN1c1cc(Cl)nc2[nH]ccc12                   30
 8  C[C@@H]1Cc2ncnc(N3CC(O)C3)c2CN1c1cc(Cl)nc2[nH]ccc12                   21
 9  C[C@@H]1Cc2ncnc(N3CCC(C)(O)CC3)c2CN1c1cc(Cl)nc2[nH]ccc12                   25
10  C[C@@H]1Cc2ncnc([C@@H]3CCN(S(C)(=O)=O)C3)c2CN1c1ccnc2[nH]ccc12 [Example 57a]                  183
11  C[C@@H]1Cc2ncnc(N3CC[C@@H](S(C)(=O)=O)C3)c2CN1c1cc(Cl)nc2[nH]ccc12                   20
12  CCOc1cc(N2Cc3c(ncnc3C3CCN(S(C)(=O)=O)CC3)C[C@@H]2CF)c2cc[nH]c2n1 [Example 55a]                 2360
13  C[C@@H]1Cc2ncnc(C3=C[C@@H]4CC[C@H](C3)N4S(C)(=O)=O)c2CN1c1cc(Cl)nc2[nH]ccc12                   22
14  C[C@@H]1Cc2ncnc([C@H]3CCCN(S(C)(=O)=O)C3)c2CN1c1ccnc2[nH]ccc12 [Example 50b]                  579
